biological target: T1, Cynomolgus monkey BCMA (cynomolgus monkey); experiment: SPR, IgG immobilised, cyno BCMA analyte
T1 construct: Soluble analyte in SPR; also called cyBCMA; Cyno BCMA
quantity measured: kon (M⁻¹ s⁻¹)
The response must be a number in M⁻¹ s⁻¹ with no trailing unit.

binder="C01_Rd4_0.6nM_C06 (antibody, V domains shown, IgG) VH: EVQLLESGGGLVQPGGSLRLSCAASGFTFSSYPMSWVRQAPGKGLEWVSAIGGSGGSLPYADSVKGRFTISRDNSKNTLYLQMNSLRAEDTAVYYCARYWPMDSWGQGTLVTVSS VL: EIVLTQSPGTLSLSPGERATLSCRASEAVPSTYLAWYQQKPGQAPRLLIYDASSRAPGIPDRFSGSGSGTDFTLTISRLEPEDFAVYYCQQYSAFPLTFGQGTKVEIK" quantity_measured=kon units_symbol="M⁻¹ s⁻¹" reported_value=6.22e+06
binder="COMBO_Rd4_0.6nM_C11 (antibody, V domains shown, IgG) VH: EVQLLESGGGLVQPGGSLRLSCAASGFTFSSYPMSWVRQAPGKGLEWVSAALGSGGSTYYADSVKGRFTISRDNSKNTLYLQMNSLRAEDTAVYYCARYWPMSLWGQGTLVTVSS VL: EIVLTQSPGTLSLSPGERATLSCRASQSVSVRYLAWYQQKPGQAPRLLMYDASIRATGIPDRFSGSGSGTDFTLTISRLEPEDFAVYYCQQYGSWPITFGQGTKVEIK" quantity_measured=kon units_symbol="M⁻¹ s⁻¹" reported_value=2.2e+06

Item under review: A02_Rd4_0.6nM_C18 (antibody, V domains shown, IgG) VH: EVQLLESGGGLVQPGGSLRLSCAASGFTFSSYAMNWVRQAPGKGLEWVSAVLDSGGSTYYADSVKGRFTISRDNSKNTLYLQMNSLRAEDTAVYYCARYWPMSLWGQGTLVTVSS VL: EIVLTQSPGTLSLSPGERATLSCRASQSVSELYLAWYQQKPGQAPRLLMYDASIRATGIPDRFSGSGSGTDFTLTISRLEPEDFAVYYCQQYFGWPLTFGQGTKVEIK . Reported kon?
3.24e+06
